The origin of these recorded values is patent US10577362B2.

System: HepG2 (hepatocellular carcinoma) cell line
experiment_notes: CellTiter-Glo luminescent cell viability assay, HepG2
Assay type: cell-based, human
condition_parameters: Homo sapiens, HepG2; HepG, compound at 4 μM, 72 h
Classes are defined on viability at 4 µM with ranges LOW (below 60%), MID (60% to below 80%), HIGH (80% or more)

Completed entries (count: 3):
CC(C)(C)NC1CCN(c2c(C#N)c(NCc3ccco3)nc3ccccc23)CC1 [Compound 3302CN] ... HIGH
CC(C)(C)NC1CCN(c2c(C#N)c(NCc3cccnc3)nc3ccccc23)CC1 [Compound 3304CN] ... HIGH
N#Cc1c(NCc2ccc(Cl)cc2)nc2ccccc2c1N1CCC(N2CCCC2)C1 (stereo not shown) [Compound 148CN] ... HIGH

Entry CC(C)(C)NC1CCN(c2c(C#N)c(Nc3cccc(C(F)(F)F)c3)nc3ccccc23)CC1 [Compound 3256CN] belongs to which category?
HIGH

Entry CN1CCC(NC2CCCN(c3c(C#N)c(NCc4ccc(Cl)cc4)nc4ccccc34)C2)CC1 (stereo not shown) [Compound 3162CN] belongs to which category?
LOW

Entry N#Cc1c(NCc2ccc(Cl)cc2)nc2ccccc2c1N1CCCC(Oc2ccccc2)C1 (stereo not shown) [Compound 3206CN] belongs to which category?
MID

Entry CN(C)C1CCN(c2c(C#N)c(NCc3ccc(Cl)cc3)nc3ccccc23)CC1 [Compound 3184CN] belongs to which category?
MID

====

Tested on: Huh7 (hepatocellular carcinoma) cell line
experiment_notes: CellTiter-Glo luminescent cell viability assay, Huh7
Assay type: cell-based, human
condition_parameters: Homo sapiens, Huh-7; Huh7, compound at 10 μM, 72 h
Structures can show the parent of a compound that is named as a salt.
measurement_type: viability at 10 µM (%)
Give the number; % is assumed, so skip it.

Example cases with answers are listed next.
CC(C)(C)NC1CCN(c2c(C#N)c(NCc3ccncc3)nc3ccccc23)CC1 [Compound 3306CN] ... 82.4
CC(C)NC1CCCN(c2c(C#N)c(NCc3ccc(Cl)cc3)nc3ccccc23)C1 (stereo not shown) [Compound 3160CN] ... 0.5
Cc1cc(C)nc(Nc2ccc(Nc3nc4ccccc4c(N4CCC(NC(C)(C)C)CC4)c3C#N)cc2)n1 [Compound 3276CN] ... 1
N#Cc1c(NCc2ccc(Cl)cc2)nc2ccccc2c1N1CCC(N2CCOCC2)CC1 [Compound 202CN] ... 56.1
N#Cc1c(NCc2ccc(Cl)cc2)nc2ccccc2c1N1CCCC(Oc2ccc(F)cc2)C1 (stereo not shown) [Compound 3238CN] ... 93.7
COc1ccc(OC2CCCN(c3c(C#N)c(NCc4ccc(Cl)cc4)nc4ccccc34)C2)cc1 (stereo not shown) [Compound 3232CN] ... 90.3
Cc1ccc(OC2CCCN(c3c(C#N)c(NCc4ccc(Cl)cc4)nc4ccccc34)C2)cc1 (stereo not shown) [Compound 3234CN] ... 95.5
COc1ccc(OC2CCN(c3c(C#N)c(NCc4ccc(Cl)cc4)nc4ccccc34)CC2)cc1 [Compound 3224CN] ... 90

Please respond with reported viability at 10 µM (system Huh7 (hepatocellular carcinoma) cell line) for CN1CCC(NC2CCN(c3c(C#N)c(NCc4ccc(Cl)cc4)nc4ccccc34)CC2)CC1 [Compound 3182CN] .
0.4

Please respond with reported viability at 10 µM (system Huh7 (hepatocellular carcinoma) cell line) for CNC1CCN(c2c(C#N)c(NCc3ccc(Cl)cc3)nc3ccccc23)CC1 [Compound 3172CN] .
0.4

Please respond with reported viability at 10 µM (system Huh7 (hepatocellular carcinoma) cell line) for Cc1cc(Nc2nc3ccccc3c(N3CCC(NC(C)(C)C)CC3)c2C#N)ccc1Nc1nccc(C(F)(F)F)n1 [Compound 534CN] .
0.4

Please respond with reported viability at 10 µM (system Huh7 (hepatocellular carcinoma) cell line) for N#Cc1c(NCc2ccc(Cl)cc2)nc2ccccc2c1N1CCCC(N)C1 (stereo not shown) [Compound 3156CN] .
0.6

Please respond with reported viability at 10 µM (system Huh7 (hepatocellular carcinoma) cell line) for Cc1cc(Nc2nc3ccccc3c(N3CCC(NC(C)(C)C)CC3)c2C#N)ccc1F [Compound 3250CN] .
0.5

Please respond with reported viability at 10 µM (system Huh7 (hepatocellular carcinoma) cell line) for Cc1cccc2c(N3CCC(NC(C)(C)C)CC3)c(C#N)c(NCc3ccc(Cl)cc3)nc12 [Compound 414CN] .
0.5

Please respond with reported viability at 10 µM (system Huh7 (hepatocellular carcinoma) cell line) for CN1CCN(C2CCN(c3c(C#N)c(NCc4ccc(Cl)cc4)nc4ccccc34)C2)CC1 (stereo not shown) [Compound 3200CN] .
0.4

Please respond with reported viability at 10 µM (system Huh7 (hepatocellular carcinoma) cell line) for CCN(CC)C1CCN(c2c(C#N)c(NCc3ccc(Cl)cc3)nc3ccccc23)C1 (stereo not shown) [Compound 126CN] .
96.1

Please respond with reported viability at 10 µM (system Huh7 (hepatocellular carcinoma) cell line) for CC(C)N(Cc1ccc(Cl)cc1)c1cc(N2CCC(NC(C)(C)C)CC2)c2ccccc2n1 [Compound 216, hydrochloride] .
0.5

Please respond with reported viability at 10 µM (system Huh7 (hepatocellular carcinoma) cell line) for CCN(Cc1ccc(Cl)cc1)c1cc(N2CCC(NC(C)(C)C)CC2)c2ccccc2n1 [Compound 214, hydrochloride] .
0.4

Please respond with reported viability at 10 µM (system Huh7 (hepatocellular carcinoma) cell line) for Cc1nccnc1OC1CCN(c2c(C#N)c(NCc3ccc(Cl)cc3)nc3ccccc23)C1 (stereo not shown) [Compound 3362CN] .
35.1

Please respond with reported viability at 10 µM (system Huh7 (hepatocellular carcinoma) cell line) for N#Cc1c(NCc2ccc(Cl)cc2)nc2ccccc2c1N1CCC(NC2CCCC2)C1 (stereo not shown) [Compound 134CN] .
70.5

====

System: Huh7 (hepatocellular carcinoma) cell line
experiment_notes: CellTiter-Glo luminescent cell viability assay, Huh7
Assay type: cell-based, human
condition_parameters: Homo sapiens, Huh-7; Huh7, compound at 10 μM, 72 h
Procedure: All cell lines were maintained in medium containing 1% penicillin-streptomycin (Dutscher, P06-07100) and 10% Fetal Bovine Serum (Hyclone Dutscher, RZK35922) cultured at 37° C. with 5% CO2. […] Cell viability was measured using the CellTiter-Glo® luminescent cell viability assay as described by the manufacturer (Promega, Ref G7571) using an Infinite F200Pro luminometer (Tecan). […]
measurement_type: viability at 10 µM (%)
Give the number; % is assumed, so skip it.

CC(C)(C)OC(=O)NC1CCN(c2c(C#N)c(NCc3ccc(Cl)cc3)nc3ccccc23)CC1 [Compound 182CN] ... 76.2

Provide only the value of recorded viability at 10 µM for CN1CCC(NC2CCCN(c3c(C#N)c(NCc4ccc(Cl)cc4)nc4ccccc34)C2)CC1 (stereo not shown) [Compound 3162CN]
0.2

Provide only the value of recorded viability at 10 µM for Cc1c(Nc2cccc(Nc3nccc(C(F)(F)F)n3)c2)nc2ccccc2c1N1CCC(NC(C)(C)C)CC1 [Compound 540Me]
0.2

Provide only the value of recorded viability at 10 µM for N#Cc1c(NCc2ccc(Cl)cc2)nc2ccccc2c1N1CCC(Oc2ccccc2)CC1 [Compound 2940CN]
88.9

Provide only the value of recorded viability at 10 µM for Cc1nccnc1OC1CCN(c2c(C#N)c(NCc3ccc(Cl)cc3)nc3ccccc23)CC1 [Compound 2970CN]
53.4

Provide only the value of recorded viability at 10 µM for Cc1nnc(Nc2nc3ccccc3c(N3CCC(NC(C)(C)C)CC3)c2C#N)o1 [Compound 3272CN]
67.2

Provide only the value of recorded viability at 10 µM for CC(C)(C)NC1CCN(c2c(C#N)c(Nc3ccccc3)nc3ccccc23)CC1 [Compound 3246CN]
0.6

Provide only the value of recorded viability at 10 µM for N#Cc1c(NCc2ccc(Cl)cc2)nc2ccccc2c1N1CCC(N)C1 (stereo not shown) [Compound 3190CN]
1.3

Provide only the value of recorded viability at 10 µM for N#Cc1c(NCc2ccc(Cl)cc2)nc2ccccc2c1N1CCC(N2CCOCC2)C1 (stereo not shown) [Compound 150CN]
90.4

====

System: PANC-1 (prancreatic carcinoma) cell line
experiment_notes: CellTiter-Glo luminescent cell viability assay, PANC-1
Format: cell-based
condition_parameters: Homo sapiens; PANC-1, 10 μM, 72 h, % of signal of diluent-treated cultures
Experimental: All cell lines were maintained in medium containing 1% penicillin-streptomycin (Dutscher, P06-07100) and 10% Fetal Bovine Serum (Hyclone Dutscher, RZK35922) cultured at 37° C. with 5% CO2. […] Cell viability was measured using the CellTiter-Glo® luminescent cell viability assay as described by the manufacturer (Promega, Ref G7571) using an Infinite F200Pro luminometer (Tecan). […]
Decision: viability at 10 µM beneath 50% gives 1; viability at 10 µM meeting or exceeding 50% gives 0.

Hello, I'm reviewing records and need to know if viability at 10 µM of CC(C)(C)NC1CCN(c2c(C#N)c(Nc3ccccc3C(F)(F)F)nc3ccccc23)CC1 [Compound 3254CN] is below 50%. Could you check?
1

Hello, I'm reviewing records and need to know if viability at 10 µM of CC(C)(C)NC1CCN(c2c(C#N)c(Nc3ccccc3)nc3ccccc23)CC1 [Compound 3246CN] is below 50%. Could you check?
1

Hello, I'm reviewing records and need to know if viability at 10 µM of N#Cc1c(NCc2ccc(Cl)cc2)nc2ccccc2c1N1CCC(NC2CCOCC2)CC1 [Compound 3180CN] is below 50%. Could you check?
0

Hello, I'm reviewing records and need to know if viability at 10 µM of CC(C)(C)NC1CCN(c2c(C#N)c(Nc3ccncn3)nc3ccccc23)CC1 [Compound 3282CN] is below 50%. Could you check?
0

Hello, I'm reviewing records and need to know if viability at 10 µM of CN(C)C1CCCN(c2c(C#N)c(NCc3ccc(Cl)cc3)nc3ccccc23)C1 (stereo not shown) [Compound 3164CN] is below 50%. Could you check?
0

Hello, I'm reviewing records and need to know if viability at 10 µM of Cc1ccc(CNc2nc3ccccc3c(N3CCC(NC(C)(C)C)CC3)c2C#N)cc1 [Compound 3288CN] is below 50%. Could you check?
1

Hello, I'm reviewing records and need to know if viability at 10 µM of COc1ccc(CNc2nc3ccccc3c(N3CCC(NC(C)(C)C)CC3)c2C#N)cc1 [Compound 3290CN] is below 50%. Could you check?
1

Hello, I'm reviewing records and need to know if viability at 10 µM of CCN(CC)C1CCN(c2c(C#N)c(NCc3ccc(Cl)cc3)nc3ccccc23)CC1 [Compound 184CN] is below 50%. Could you check?
1

Hello, I'm reviewing records and need to know if viability at 10 µM of CC(C)(C)NC1CCN(c2c(C#N)c(NCc3ccco3)nc3ccccc23)CC1 [Compound 3302CN] is below 50%. Could you check?
0

Hello, I'm reviewing records and need to know if viability at 10 µM of CC(C)(C)NC1CCN(c2c(C#N)c(NCc3ccccc3)nc3ccccc23)CC1 [Compound 3286CN] is below 50%. Could you check?
0
